measurement-target: T1, human 5T4-His protein (human, UniProt Q13641 32-355)
T1 construct: also called recombinant 5T4 protein (human 5T4-his tag); human 5T4 protein; not shown: His tag
T1 sequence (looked up): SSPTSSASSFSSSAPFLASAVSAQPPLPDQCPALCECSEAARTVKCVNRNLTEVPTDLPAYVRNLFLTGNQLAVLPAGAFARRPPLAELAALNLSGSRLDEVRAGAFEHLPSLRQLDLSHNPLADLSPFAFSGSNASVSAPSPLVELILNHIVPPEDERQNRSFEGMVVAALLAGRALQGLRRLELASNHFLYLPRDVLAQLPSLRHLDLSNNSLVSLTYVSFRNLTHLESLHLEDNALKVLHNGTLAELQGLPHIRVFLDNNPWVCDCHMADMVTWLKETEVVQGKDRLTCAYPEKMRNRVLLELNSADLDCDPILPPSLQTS
protocol-notes: ELISA, coated 5T4-His
Overview of reported EC50 across a group of binders:
property-label: EC50 (nM)

>>> recorded_measurement("Hu286B4-5 (antibody, V domains shown, humanized) VH: EVQLQESGPGLVKPSDTLSLTCAVSGYSISNNYYWNWIRQPPGKGLEWIGYITYDGSNNYNPSLKNRVTMSRDTSKNQFSLKLSSVTAVDTAVYYCARGGGQLRFDYWGQGTTVTVSS VL: SIVMTQSPSSLSASVGDRVTITCKASQSVSNEVTWYQQKPGKSPKMLIYYASNRYTGVPDRFSGSGYGTDFTFTISSLQPEDIATYFCQQDYSSPWTFGGGTKVEIK")
0.28
>>> recorded_measurement("Hu286B4-6 (antibody, V domains shown, humanized) VH: EVQLQESGPGLVKPSDTLSLTCAVSGYSISNNYYWNWIRQPPGKGLEWIGYITYDGSNNYNPSLKNRITMSRDTSKNQFSLKLSSVTAVDTAVYYCARGGGQLRFDYWGQGTTVTVSS VL: DIQMTQSPSSLSASVGDRVTITCKASQSVSNEVTWYQQKPGKAPKLLIYYASNRYTGVPDRFSGSGSGTDFTFTISSLQPEDIATYYCQQDYSSPWTFGGGTKVEIK")
2.64
>>> recorded_measurement("Hu286B4-13 (antibody, V domains shown, humanized) VH: EVQLQESGPGLVKPSDTLSLTCAVSGYSISNNYYWNWIRQPPGKGLEWMGYITYDGSNNYNPSLKNRITVSRDTSKNQFSLKLSSVTAVDTAVYYCARGGGQLRFDYWGQGTTVTVSS VL: DIQMTQSPSSLSASVGDRVTITCKASQSVSNEVTWYQQKPGKAPKMLIYYASNRYTGVPDRFSGSGYGTDFTFTISSLQPEDIATYYCQQDYSSPWTFGGGTKVEIK")
0.57
